# Tested on: CYP
# procedureText: CYP inhibition profile
# Assay type: in vitro ADME
pIC50: −log10 of the molar value.
readout: pIC50

molecule	systemName	pIC50
Cn1cnc(S(=O)(=O)N2CC3CCC(NC(=O)c4ccc(Cl)cc4Cl)C3C2)c1 (centres unmarked) [Compound 12a]	CYP	< 5.00

Here is another molecule to look at.
# input Please look up its pIC50: Cn1cnc(S(=O)(=O)N2CC(C(NC(=O)c3ccc(Cl)cc3Cl)c3ccccn3)C2)c1 (centres unmarked) [Compound 27c]
# output < 5.00
